All figures here come from PubChem BioAssay AID651965.

target-system: ATP-dependent Clp protease proteolytic subunit (Bacillus subtilis (strain 168)) (UniProt P80244)
assay-summary: qHTS Assay for Activators of ClpP; also: potency is read from the fitted curve at half-maximal effect; also: the source files actives as falling curves though it sought activators and does not explain the sign; nearly all actives have a fitted effect of over 65% in size
measurement-conditions: purified B. subtilis ClpP, FRET peptide cleavage, 20 min; series mostly up to 57.5 µM
Screen size: about 340,000 compounds; about 6,400 (1.9%) were called active. Another 4% or so got no clear call; they are omitted. This excerpt belongs to a sample that is enriched for actives.
property-name: Potency

[
  {
    "compound": "Cc1c(CCO)sc[n+]1CC(=O)c1ccc2ccccc2c1",
    "property-name": "Potency",
    "meas-value": "inactive"
  },
  {
    "compound": "COc1cc(Cl)c(C)cc1NC(=O)[C@@H]1CCCN1C(=O)c1cccs1",
    "property-name": "Potency",
    "meas-value": "inactive"
  },
  {
    "compound": "CC(C)C(=O)N1CCC2(CC1)Oc1ccc(F)cc1C(=O)C21CC(c2ccccc2)=NO1 (stereo unspecified)",
    "property-name": "Potency",
    "meas-value": "inactive"
  },
  {
    "compound": "Cc1cccc(CN2CCN(C3CN(Cc4cn(Cc5ccccc5F)nn4)S(=O)(=O)C3)CC2)c1 (stereo unspecified)",
    "property-name": "Potency",
    "meas-value": "inactive"
  },
  {
    "compound": "CC(C)C(=O)N1CCN(c2nc(-c3ccccc3)c3c(c2C#N)CC(C)(C)OC3)CC1",
    "property-name": "Potency",
    "meas-value": "28.2 µM (active)"
  },
  {
    "compound": "Cc1[nH]c2ccccc2c1C(=O)c1cc([C@H](NC(=O)OC(C)(C)C)C(C)C)sc1N",
    "property-name": "Potency",
    "meas-value": "inactive"
  }
]

Incoming: What value of Potency has been recorded for this entry: CCC(C)(C)NC(=O)C(c1cccn1C)N(Cc1ccc(C)cc1)C(=O)Cn1nnc2ccccc21 (stereo unspecified)
Outgoing: 31.6 µM (active)

Incoming: Would you kindly repeat that for "CCC(=O)N(CCc1ccccc1)Cc1cc2cc(C)ccc2[nH]c1=O" ?
Outgoing: inactive

###

target-system: ATP-dependent Clp protease proteolytic subunit (Bacillus subtilis (strain 168))
assay-summary: qHTS Assay for Activators of ClpP; also: the source files actives as falling curves though it sought activators and does not explain the sign; nearly all actives have a fitted effect of over 65% in size
measurement-conditions: purified B. subtilis ClpP, FRET peptide cleavage, 20 min; series mostly up to 57.5 µM
Hit rate of the full screen: of about 340,000 compounds, about 6,400 (1.9%) were called active. Another 4% or so got no clear call; they are omitted. The call rests on the fitted dose curve; in most records, active means well fitted falling curve with a large enough effect; inconclusive means small, poorly fitted or top-dose-only effect; inactive means no such curve, though single readings can be large or run the other way. The list comes from a sample in which actives are over-represented; it also holds close analogues and randomly drawn compounds.
Field 'call' accepts active, inactive

Here's what some known entries look like.
[
  {
    "compound-structure-string": "Cc1csc[n+]1CCC1CCCCC1",
    "class-name": "inactive"
  },
  {
    "compound-structure-string": "Clc1cccc[n+]1CCCC[n+]1ccccc1Cl",
    "class-name": "inactive"
  },
  {
    "compound-structure-string": "COc1ccccc1-c1cc2nc(NCc3cccc(Cl)c3)ccn2n1",
    "class-name": "inactive"
  },
  {
    "compound-structure-string": "CCOC(=O)CSc1nnc(CNC(=O)c2ccco2)n1-c1ccc(F)cc1",
    "class-name": "inactive"
  },
  {
    "compound-structure-string": "CCOC(=O)CSc1nnc(CNC(=O)c2cccs2)n1-c1cc(OC)ccc1OC",
    "class-name": "inactive"
  }
]

# next molecule below
Incoming: // return assay outcome for "CCOC(=O)CSc1nnc(CNC(=O)c2cccs2)n1-c1ccccc1"
Outgoing: active
